PROTOCOL_NOTES: viability of PTEN-null HCT116 cells – cell-based, HCT116 clonal line, CellTiter-Glo, pilot screen (AID 824);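 note: 0% = 20 µM Hyamine control and 100% = vehicle cell control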
STUDY_CONDITIONS: HCT116 PTEN-deleted viability, 60 h, at 10 µM, hits give low values
Results filed as inconclusive are left out. Active and inactive are the calls of the source.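 Rule for the calls: active = viability at or below 27.92% in each of two runs, the all-compound median minus 4 SD; inconclusive = no clear call, values can overlap the other calls; inactive = the rest.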
RECORDED_ENDPOINT: viability

Check out these entries, answers already filled in.
MOLECULE: COc1ccc(OCCn2c(NC(=O)c3ccco3)nc3ccccc32)cc1
RECORDED_ENDPOINT: viability
RECORDED_VALUE: 57.9% (inactive)
--
MOLECULE: Cc1cccc(N2CCN(C(=O)c3cc4c(C)nc5ccccc5c4o3)CC2)c1C
RECORDED_ENDPOINT: viability
RECORDED_VALUE: 78.2% (inactive)
--
MOLECULE: CCOc1ccccc1NC1c2ccccc2C(=O)N1c1ccc(C)cn1 (configuration not stated)
RECORDED_ENDPOINT: viability
RECORDED_VALUE: 88% (inactive)

Data request: # query: viability of entry `CCOC(=O)C1CCN(C(=O)Nc2ccc(Cl)cc2)CC1`
Data returned: 102% (inactive)

Data request: Input `Cc1ccc(-c2nc(C(=O)NC3CCCCCC3)no2)cc1`
Data returned: 104% (inactive)

Data request: Try this molecule next: `Cc1noc(/C=C/NCc2cccnc2)c1S(=O)(=O)N(C)CC(=O)N1CCc2ccccc21`
Data returned: 86.4% (inactive)

Data request: One more molecule: Cc1noc(/C=C/N(C)C)c1S(=O)(=O)N1CCCC(C(=O)NCc2cccs2)C1 (configuration not stated)
Data returned: 88.5% (inactive)

Data request: Same thing, different molecule: `CCOC(=O)c1ccc(NC(=O)c2cc3ccccc3o2)cc1`
Data returned: 86.6% (inactive)

Data request: Entry `CCCOc1cccc(C(=O)Nc2cccnc2)c1` please
Data returned: 96.2% (inactive)

Data request: Here is the next molecule: N#CCCn1cc(C(CC(=O)c2ccc(Br)cc2)C(=O)O)c2ccccc21 (configuration not stated)
Data returned: 96.4% (inactive)

###

PROTOCOL_NOTES: growth suppression of yeast trafficking mutant, preliminary HTS, modulators of trafficking downstream of Golgi apparatus project, 1536-format plate, OD 615 nm (AID 637)
STUDY_CONDITIONS: yeast transport mutant growth, absorbance 615 nm, 18 h; hits give high values
RECORDED_ENDPOINT: inhibition (%)
Write it as a number; the unit % goes unstated.

Study these solved cases before continuing.
COMPOUND: CC1CCN(C(=O)CSc2nnc(-c3cccnc3)n2C2CCCCC2)CC1
UNIT_ABBREVIATION: %
inhibition: 0.16
//
COMPOUND: COCC(C)NC(=O)CCS(=O)(=O)c1nc(-c2ccc(OC)cc2)cc(C(F)(F)F)n1 (stereo not given)
UNIT_ABBREVIATION: %
inhibition: -0.63
//
COMPOUND: CCS(=O)(=O)c1nc2ccccc2n1CC(=O)N1CCOCC1
UNIT_ABBREVIATION: %
inhibition: -1.27
//
COMPOUND: O=C(NC1CC2CCC1C2)c1ccc(CN2CCOCC2)cc1 (stereo not given)
UNIT_ABBREVIATION: %
inhibition: -2.7
//
COMPOUND: COC(=O)C(F)(F)Sc1c(C)[nH]c2ccccc12
UNIT_ABBREVIATION: %
inhibition: -1.43
//
COMPOUND: COC(=O)CN1C(=O)C2(C(C#N)=C(N)Oc3c2c(C)nn3-c2ccccc2)c2ccccc21 (stereo not given)
UNIT_ABBREVIATION: %
inhibition: -1.43

Read the next record carefully.
Data request: Any idea what its inhibition is? The compound is `S=c1nc(C2CC2)[nH]c2ccccc12`
Data returned: 0.63
